// provenance: patent US20240270821A1

- targetEntity: human glucagon receptor (human) (UniProt P47871)
- Sequence (P47871 26-477): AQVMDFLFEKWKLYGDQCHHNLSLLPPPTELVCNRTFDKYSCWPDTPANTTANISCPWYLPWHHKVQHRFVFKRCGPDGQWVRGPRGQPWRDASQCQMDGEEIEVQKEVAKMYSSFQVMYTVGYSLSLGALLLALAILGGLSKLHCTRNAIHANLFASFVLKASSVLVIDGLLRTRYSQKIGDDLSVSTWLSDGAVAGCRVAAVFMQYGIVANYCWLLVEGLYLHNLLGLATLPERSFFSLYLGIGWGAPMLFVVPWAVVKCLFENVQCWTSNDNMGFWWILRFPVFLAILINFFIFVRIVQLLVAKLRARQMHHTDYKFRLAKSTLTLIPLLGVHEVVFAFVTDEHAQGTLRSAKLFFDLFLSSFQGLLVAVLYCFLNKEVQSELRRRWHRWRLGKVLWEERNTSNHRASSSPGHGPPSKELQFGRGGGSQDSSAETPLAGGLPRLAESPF
- assayNotes: cell-based or functional assay
Below is a list of entries, each paired with its recorded cAMP Rel EC50 (receptor-expressing HEK-293 cells, 1% HSA) value.
property: cAMP Rel EC50 (receptor-expressing HEK-293 cells, 1% HSA) (nM)

binder	unitText	measuredResult
YXQGTXTSDXXIXLDXKAQXXFIEYLIEGGPSSGEPPPEEG (synthetic construct; SITE 2: note = 2-Aminoisobutyric Acid; SITE 6: note = alpha-methyl-2-fluoro-L-phenylalanine; SITE 10: note = 3-(4-Pyridyl)-L-alanine; SITE 11: note = alpha-methyl-L-serine; SITE 13: note = alpha-methyl-leucine; SITE 16: note = L-ornithine; SITE 17: note = Lysine is chemically mo) [Example 476]	nM	90.2
YXQGTXTSDXSIXLDXKAQXAFIEYLEEGGPSSGEPPPS (synthetic construct; SITE 2: note = 2-Aminoisobutyric Acid; SITE 6: note = alpha-methyl-2-fluoro-L-phenylalanine; SITE 10: note = 3-(4-Pyridyl)-L-alanine; SITE 13: note = alpha-methyl-leucine; SITE 16: note = L-ornithine; SITE 17: note = Lysine is chemically modified through conjugation of the epsil) [Example 486]	nM	647
HXQGTXTSDXXIXLDXKAQXNFIEYLLEGGPSSGEPPPE (synthetic construct; SITE 2: note = 2-Aminoisobutyric Acid; SITE 6: note = alpha-methyl-2-fluoro-L-phenylalanine; SITE 10: note = 3-(4-Pyridyl)-L-alanine; SITE 11: note = alpha-methyl-L-serine; SITE 13: note = alpha-methyl-leucine; SITE 16: note = L-ornithine; SITE 17: note = Lysine is chemically mo) [Example 478]	nM	665
YXQGTXTSDXXIXLDXKAQXXFIEXLIEGGPSSGEPEPSEG (synthetic construct; SITE 2: note = 2-Aminoisobutyric Acid; SITE 6: note = alpha-methyl-2-fluoro-L-phenylalanine; SITE 10: note = 3-(4-Pyridyl)-L-alanine; SITE 11: note = alpha-methyl-L-serine; SITE 13: note = alpha-methyl-leucine; SITE 16: note = L-ornithine; SITE 17: note = Lysine is chemically mo) [Example 481]	nM	100
YXQGTXTSDXSIXLDXKAQXXFIEYLIEGGPSSGEPPPSEG (synthetic construct; SITE 2: note = 2-Aminoisobutyric Acid; SITE 6: note = alpha-methyl-2-fluoro-L-phenylalanine; SITE 10: note = 3-(4-Pyridyl)-L-alanine; SITE 13: note = alpha-methyl-leucine; SITE 16: note = L-ornithine; SITE 17: note = Lysine is chemically modified through conjugation of the epsil) [Example 489]	nM	523
YXQGTXTSDXXIXLDXKAQXTFIEXLIEGGPSSGEPPPE (synthetic construct; SITE 2: note = 2-Aminoisobutyric Acid; SITE 6: note = alpha-methyl-2-fluoro-L-phenylalanine; SITE 10: note = 3-(4-Pyridyl)-L-alanine; SITE 11: note = alpha-methyl-L-serine; SITE 13: note = alpha-methyl-leucine; SITE 16: note = L-ornithine; SITE 17: note = Lysine is chemically mo) [Example 457]	nM	333
